Biological target: T1, human OX40 protein (Acro biosystem, #OX0-H5224) (human, UniProt P43489 29-216)
T1 construct: Bought recombinant protein
T1 sequence (looked up): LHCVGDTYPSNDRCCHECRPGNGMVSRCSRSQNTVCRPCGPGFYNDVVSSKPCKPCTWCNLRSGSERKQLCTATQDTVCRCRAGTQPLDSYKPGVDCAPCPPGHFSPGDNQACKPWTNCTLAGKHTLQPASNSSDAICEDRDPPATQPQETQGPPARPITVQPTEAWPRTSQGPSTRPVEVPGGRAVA
Test: ELISA, coated human OX40 protein
readout-kind: Maximum OD (OD)
Respond with the bare value in OD.

Example entries and their recorded answers appear below.
* PR002070 (antibody, human IgG1, V domains shown, no light chain; also called anti-OX40 HCAb antibody) VH: EVQLLESGGGLVQPGGSLRLSCIASGFSFSSYAMSWVRQAPGKGLEWVSAISGRGGSTFYADSVRGRFNISRDNSKNTLYLQMNSLRVEDTAVYYCANGMTGTTDVDYWGQGTLVTVSS | 2.4
* PR002068 (antibody, human IgG1, V domains shown, no light chain; also called anti-OX40 HCAb antibody) VH: EVQLLESGGGLVQPGGSLRLSCAASGFSFSSYAMTWVRQAPGKGLEWVSAISGGGGSIFYADSVRGRFTISRDNSKNTLYLQMNSLRAEDTAVYYCANGMTGSTDVDYWGQGTQVTVSS | 2.42
* PR002071 (antibody, human IgG1, V domains shown, no light chain; also called anti-OX40 HCAb antibody) VH: EVQLVESGGGLVQPGGSLRLSCAASGFTFSSYAMSWVRQAPGKGLEWVSAISGGGGSIFYADSVRGRFTISRDNSKNTLYLQMNSLRAEDTAVYYCANGMTGTTDVDYWGQGTLVTVSS | 2.45
* PR002065 (antibody, human IgG1, V domains shown, no light chain; also called anti-OX40 HCAb antibody) VH: EVQLVESGGGLVQPGGSLRLSCAASGFTFSSYAMSWVRQAPGKGLEWVSAISGRGDITFYADSVRGRFTISRDNSKNTLYLQMNSLRAEDTALYYCANGMTGSTDVDFWGQGTLVTVSS | 2.47
* PR002074 (antibody, human IgG1, V domains shown, no light chain; also called anti-OX40 HCAb antibody) VH: EVQLLESGGGLVQPGGSLRLSCAASGFTFSSYAMSWVRQAPGKGLEWVSGISGGGNNTFYADSVRGRFTISRDNSKNTLYLQMNSLRAEDTAVYYCMRGWELPLLENWGQGTLVTVSS | 2.35

The reported Maximum OD of the binder PR002077 (antibody, human IgG1, V domains shown, no light chain; also called anti-OX40 HCAb antibody) VH: EVQLLESGGGLVQPGGSLRLSCAASGFTFSSYAMSWVRQAPGKGLEWVSAISGRGNITFYADSVRGRFTISRDNSKNTLYLQMNSLRAEDTAVYYCANGITGTTDVDYWGQGTLVTVSS was 2.67

The reported Maximum OD of the binder PR002055 (antibody, human IgG1, V domains shown, no light chain; also called anti-OX40 HCAb antibody) VH: EVQLLESGGGLVQPGGSLRLSCAASGLTFSSYAMSWVRQAPGKGLEWISAISGGGGSTYYADSVRGRFTISRDNSKNTLYLQMNSLRAEDTAVYYCANGMTGSTDVDYWGQGTLVTVSS was 1.41

The reported Maximum OD of the binder PR002056 (antibody, human IgG1, V domains shown, no light chain; also called anti-OX40 HCAb antibody) VH: EVQLLESGGGLVQPGGSLRLSCAASGFTFSSYAMSWVRQAPGKGLEWVSAISGGGGSIFYADSVRGRFTISRDNSKNTLYLQMNSLRAEDTAVYYCANGMTGTTDVDYWGQGTLVTVSS was 1.71
